Source: PubChem BioAssay (NCI)

Listed here are compounds together with their documented GI50.
Tested on: OVCAR-3 ovarian
METHOD_DESCRIPTION: NCI tumour cell line growth inhibition, 48 h

COc1ccc2[nH]cc(/C=C(/C)c3ccncc3)c2c1; 4.16 µM
Nc1c(C(=O)Nc2cccc(C(F)(F)F)c2)sc2nc3c(cc12)CCCCC3; 2.84 µM

// query Find the recorded GI50 belonging to Cc1nnc(NC(=O)c2nc(S(=O)(=O)Cc3ccc(F)cc3)ncc2Cl)s1 and report it.
// result 1.94 µM

----------
Test system: SK-MEL-5 melanoma
METHOD_DESCRIPTION: NCI tumour cell line growth inhibition, 48 h; in the data active = GI50 below about 0.43 µM; inactive = the rest
Your answer must be one of the following: True = active, False = inactive

Record excerpt, results attached:
CCCOc1cc2ccccc2cc1C(=O)Nc1nc(N)c2c(ccc3nccc32)[nH]1; True
CCC(=C/[C@H](C)C/C=C/C(C)=C/[C@@H](C)C(=O)[C@@H](C)[C@H](O)[C@@H](C)CC)/C=C/[C@H]1OC(=O)C=C[C@@H]1C; True
COc1ccc(C2[C@@H](c3ccccc3)C(=O)N2c2cc(OC)c(OC)c(OC)c2)cc1F (some centres not stated); True

In the following, a different compound is considered.
// query // return assay outcome for CCCCCCCCCCCCCCCC[N+](C)(C)Cc1ccccc1
// result False
